Data origin: paper PMC7827417

# pIC50 per record follows
test system: PC-3; test: MTS cytotoxic assay, PC-3; format: cell-based; conditions: Homo sapiens, PC-3, 72 h
// field semantics: pIC50 = negative decimal log of concentration (mol/L)

Bench note, PC-3: entry C[C@]12CC[C@H]3[C@@H](CCC4=C[C@@H](O[C@@H]5OC[C@@H](O[C@@H]6O[C@H](CO)[C@@H](O)[C@H](O)[C@H]6O)[C@H](O)[C@H]5O)CC[C@@]43C=O)[C@@]1(O)CC[C@@H]2C1=CC(=O)OC1 [Hyr] , its pIC50 = 6.12

More entries:
Bench note, PC-3: entry C[C@]12CC[C@H]3[C@@H](CCC4=C[C@@H](O[C@@H]5OC[C@@H](O)[C@H](O)[C@H]5O)CC[C@@]43C=O)[C@@]1(O)CC[C@@H]2C1=CC(=O)OC1 [deHyr, deglucohyrcanoside] , its pIC50 = 6.91

Bench note, PC-3: entry C[C@H]1O[C@@H](O[C@H]2[C@@H](O)C[C@H](O[C@H]3[C@@H](O)C[C@H](O[C@H]4CC[C@@]5(C)[C@H](CC[C@@H]6[C@@H]5CC[C@]5(C)[C@@H](C7=CC(=O)OC7)CC[C@]65O)C4)O[C@@H]3C)O[C@@H]2C)C[C@H](O)[C@@H]1O [Dg, digitoxin] , its pIC50 = 7.16

Bench note, PC-3: entry CO[C@H]1C[C@H](O[C@H]2CC[C@]3(C=O)[C@H]4CC[C@]5(C)[C@@H](C6=CC(=O)OC6)CC[C@]5(O)[C@@H]4CC[C@]3(O)C2)O[C@H](C)[C@H]1O [Cy, cymarin] , its pIC50 = 7.59

---

test system: HEK 293T; test: MTS cytotoxic assay, HEK 293T; format: cell-based; settings: Homo sapiens, HEK-293T, 72 h
property: pIC50
// field semantics: pIC50 = negative decimal log of concentration (mol/L)

Looking up C[C@H]1O[C@@H](O[C@H]2[C@@H](O)C[C@H](O[C@H]3[C@@H](O)C[C@H](O[C@H]4CC[C@@]5(C)[C@H](CC[C@@H]6[C@@H]5CC[C@]5(C)[C@@H](C7=CC(=O)OC7)CC[C@]65O)C4)O[C@@H]3C)O[C@@H]2C)C[C@H](O)[C@@H]1O [Dg, digitoxin] , I see its pIC50 listed as 7.16

Looking up CO[C@H]1C[C@H](O[C@H]2CC[C@]3(C=O)[C@H]4CC[C@]5(C)[C@@H](C6=CC(=O)OC6)CC[C@]5(O)[C@@H]4CC[C@]3(O)C2)O[C@H](C)[C@H]1O [Cy, cymarin] , I see its pIC50 listed as 8.52

Looking up C[C@]12CC[C@H]3[C@@H](CCC4=C[C@@H](O[C@@H]5OC[C@@H](O[C@@H]6O[C@H](CO)[C@@H](O)[C@H](O)[C@H]6O)[C@H](O)[C@H]5O)CC[C@@]43C=O)[C@@]1(O)CC[C@@H]2C1=CC(=O)OC1 [Hyr] , I see its pIC50 listed as 6.42

Looking up C[C@]12CC[C@H]3[C@@H](CCC4=C[C@@H](O[C@@H]5OC[C@@H](O)[C@H](O)[C@H]5O)CC[C@@]43C=O)[C@@]1(O)CC[C@@H]2C1=CC(=O)OC1 [deHyr, deglucohyrcanoside] , I see its pIC50 listed as 7.42
